The reported measurements were obtained from PubChem BioAssay (NCATS).

Test: qHTS for differential inhibitors of proliferation of Plasmodium falciparum line 7G8 (AID 1815);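 also: parasite growth measured after three days of incubation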
Conditions: Plasmodium falciparum 7G8 proliferation inhibition; series mostly up to 28.7 µM
Inconclusive results are not listed. Active and inactive are the calls of the source. Calls follow the shape of the dose curve; as a rule, active = well fitted curve in the direction sought with a large enough effect; inconclusive = small, poorly fitted or top-dose-only effect, or another doubt; inactive = no such curve, though single readings can be large or run the other way.
Classes used: active, inactive

[
  {
    "COMPOUND": "COc1ccc2[nH]cc(CCN)c2c1",
    "CATEGORY_LABEL": "inactive"
  },
  {
    "COMPOUND": "CC(=O)NBr",
    "CATEGORY_LABEL": "inactive"
  },
  {
    "COMPOUND": "O=[N+]([O-])c1cc(O)c(O)c([N+](=O)[O-])c1",
    "CATEGORY_LABEL": "inactive"
  },
  {
    "COMPOUND": "CC(C)(C)c1o[nH]c(=O)c1CC(N)C(=O)O (stereo unspecified)",
    "CATEGORY_LABEL": "inactive"
  },
  {
    "COMPOUND": "O=S1(=O)N(CCN2CC=C(c3c[nH]c4cc(F)ccc34)CC2)c2cccc3c2N1CCC3",
    "CATEGORY_LABEL": "active"
  },
  {
    "COMPOUND": "C=CCN1CC[C@]23c4c5ccc(O)c4O[C@H]2/C(=N/NC(=O)c2ccccc2)CC[C@@]3(O)[C@H]1C5",
    "CATEGORY_LABEL": "active"
  }
]

====

Assay: Drug repurposing screens with cells derived from glioblastoma tumor samples (AID 1345199); also: % is scaled to controls: 0 for no effect and ±100 for the full control effect; nearly all actives have a fitted effect of over 40% in size
Conditions: GBM patient neurospheres viability, ATP luminescence, 48 h; at 45.9 µM (top of the series); tumour line B
Records with an inconclusive call do not appear.
Rule: activity, negative = cell killing below -10% gives label 1. Equal to or above -10% gives label 0.

[
  {
    "COMPOUND": "CCOP(=O)(OCC)O/C(=C/Cl)c1ccc(Cl)cc1Cl",
    "CATEGORY_LABEL": "label 1"
  },
  {
    "COMPOUND": "C[C@H]1CC[C@]2(NC1)O[C@H]1C[C@H]3[C@@H]4CC[C@H]5C[C@@H](O)CC[C@]5(C)[C@H]4CC[C@]3(C)[C@H]1[C@@H]2C",
    "CATEGORY_LABEL": "label 1"
  },
  {
    "COMPOUND": "S=C(S)N1CCNCC1",
    "CATEGORY_LABEL": "label 0"
  },
  {
    "COMPOUND": "N#CC1(N2CCCCC2)CCCCC1",
    "CATEGORY_LABEL": "label 1"
  },
  {
    "COMPOUND": "OC[C@@H](O)[C@H]1O[C@@H]2O[C@H](C(Cl)(Cl)Cl)O[C@@H]2[C@H]1O",
    "CATEGORY_LABEL": "label 0"
  },
  {
    "COMPOUND": "COCC(C)N(C(=O)CCl)c1c(C)csc1C (stereo not given)",
    "CATEGORY_LABEL": "label 1"
  },
  {
    "COMPOUND": "COC(=O)[C@@H]1[C@H]2CC[C@@H](C[C@H]1OC(=O)c1ccccc1)N2C",
    "CATEGORY_LABEL": "label 0"
  },
  {
    "COMPOUND": "C[C@]12CC[C@H]3[C@@H](CCC4=C(Cl)C(=O)CC[C@@]43C)[C@@H]1CC[C@@H]2O",
    "CATEGORY_LABEL": "label 1"
  },
  {
    "COMPOUND": "O=C(CCl)c1ccc(Oc2ccc(C(=O)CCl)cc2)cc1",
    "CATEGORY_LABEL": "label 1"
  }
]

====

Test system: NIH3T3
Assay: qHTS assay to identify novel small-molecules to repurpose for Merkel cell carcinoma treatment (AID 1296009); also: nearly all actives have a fitted effect of over 60% in size
Details: MCC and control cell lines, CellTiter-Glo viability, 72 h; at 44.8 µM (top of the series) unless noted
Description: MCC is a rare and aggressive neuroendocrine skin cancer with limited treatment options. Approximately 80% of MCCs have the Merkel cell polyomavirus (MCPyV) DNA integrated into the host genome (virus-positive: VP-MCC) and viral oncogenes drive oncogenesis. The remaining MCCs are virus-negative (VN-MCC) and are caused by UV mutagenesis. […] Using cell viability as a readout (CellTiter-Glo assay) we found both overlapping and distinct drugs that can be repurposed for the treatment of VP-MCC and VN-MCC. […]
Records with an inconclusive call do not appear. Active and inactive are the calls of the source. Calls follow the shape of the dose curve; as a rule, active = well fitted inhibition curve with a large enough effect; inconclusive = small, poorly fitted or top-dose-only effect; inactive = flat fitted curve, though single readings scatter.

[
  {
    "COMPOUND": "COC1=CC(=O)O[C@@H](/C=C/c2ccccc2)C1",
    "outcome": "inactive"
  },
  {
    "COMPOUND": "C[C@H]1O[C@@H](O[C@H]2C[C@@H](O)[C@]3(CO)C4C(CC[C@]3(O)C2)[C@@]2(O)CC[C@H](C3=CC(=O)OC3)[C@@]2(C)C[C@H]4O)[C@@H](O)[C@@H](O)[C@H]1O (stereo partly specified)",
    "outcome": "inactive [at 17.4 µM]"
  },
  {
    "COMPOUND": "CC(=O)OC12C(O)C(C)C3(O)C4C=C(C)C(=O)C4CC(CO)=CC3C1C2(C)C (stereo unspecified)",
    "outcome": "inactive [at 17.4 µM]"
  },
  {
    "COMPOUND": "CC[C@H]1CN2CC[C@H]1C[C@@H]2[C@@H](O)c1ccnc2ccc(OC)cc12",
    "outcome": "inactive"
  },
  {
    "COMPOUND": "CO[C@H]1[C@H](O)[C@H](O[C@H]2CC[C@]3(C)C4CC[C@]5(C)[C@H](C6=CC(=O)OC6)CC[C@]5(O)C4CC[C@@H]3C2)O[C@@H](C)[C@@H]1O (stereo partly specified)",
    "outcome": "inactive [at 17.4 µM]"
  },
  {
    "COMPOUND": "CN1[C@H]2C[C@H](OC(=O)[C@H](CO)c3ccccc3)C[C@@H]1[C@@H](O)C2",
    "outcome": "inactive"
  },
  {
    "COMPOUND": "CCC1NC(=O)C2C(Cl)C(Cl)CN2C(=O)C(C(C)O)NC(=O)CC(c2ccccc2)NC(=O)C(CO)NC1=O (stereo unspecified)",
    "outcome": "inactive [at 17.4 µM]"
  },
  {
    "COMPOUND": "CCCN1CCO[C@H]2c3cc(O)ccc3OC[C@@H]21",
    "outcome": "inactive"
  },
  {
    "COMPOUND": "N#C[C@@H](O[C@@H]1O[C@H](CO[C@@H]2O[C@H](CO)[C@@H](O)[C@H](O)[C@H]2O)[C@@H](O)[C@H](O)[C@H]1O)c1ccccc1",
    "outcome": "inactive [at 17.4 µM]"
  },
  {
    "COMPOUND": "CCN1CC2(COC)C3[C@@H](OC)C4C1C3(C1C[C@]3(O)[C@H](OC(=O)c5ccccc5)C1[C@]4(OC(C)=O)[C@@H](O)[C@@H]3OC)[C@H](OC)C[C@H]2O (stereo partly specified)",
    "outcome": "inactive"
  },
  {
    "COMPOUND": "OC1(c2ccc(Cl)cc2)c2ccccc2C2=NCCN21 (stereo unspecified)",
    "outcome": "inactive"
  },
  {
    "COMPOUND": "COC1CC(O[C@H]2CC[C@]3(C=O)C4CC[C@]5(C)[C@@H](C6=CC(=O)OC6)CC[C@]5(O)[C@@H]4CC[C@]3(O)C2)OC(C)C1O[C@@H]1O[C@H](CO)[C@@H](O)[C@H](O)[C@H]1O (stereo partly specified)",
    "outcome": "inactive [at 17.4 µM]"
  },
  {
    "COMPOUND": "CC(=O)OC1CC(O)C(C)(C)C2CC(OC(C)=O)C3(C)C(CCC4(C)C(c5ccoc5)C(=O)C5OC543)C12C (stereo unspecified)",
    "outcome": "inactive [at 17.4 µM]"
  },
  {
    "COMPOUND": "CC1=C2C[C@H]3[C@@H](CC=C4C[C@@H](O)CC[C@@]43C)[C@@H]2CC[C@]12O[C@@H]1C[C@H](C)CN[C@H]1[C@H]2C",
    "outcome": "inactive"
  },
  {
    "COMPOUND": "CC12CCC3C(CCC4(O)CC(O)CCC34C=O)C1(O)CCC2C1=CC(=O)OC1 (stereo unspecified)",
    "outcome": "inactive"
  },
  {
    "COMPOUND": "COc1cc(C)[nH]c(=O)c1CNC(=O)c1c(C)n([C@H](C)C2CCOCC2)c2ccccc12",
    "outcome": "inactive"
  }
]

====

Assay: qHTS assay for small molecule antagonists of the retinoid-related orphan receptor gamma (ROR-gamma) signaling pathway - cell viability counter screen (AID 720652);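 also: compound exposure lasted 16 hr before ATP read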
Conditions: RORgamma reporter cell line viability counter screen; series mostly up to 92.2 µM
Results filed as inconclusive are left out. The source made the active and inactive calls. Calls come from the whole dose curve; as a rule, active = well fitted cell-killing curve with a large enough effect in the repeat runs; inconclusive = weak or mixed curves, or effect the other way; inactive = flat fitted curve, though single readings scatter.
Classes used: 1 (active), 0 (inactive)

[
  {
    "MOLECULE": "S=C=S",
    "CATEGORY_LABEL": 0
  },
  {
    "MOLECULE": "O=Cc1ccco1",
    "CATEGORY_LABEL": 0
  },
  {
    "MOLECULE": "[O]=[Cr](=[O])([OH])[O][Cr](=[O])(=[O])[OH]",
    "CATEGORY_LABEL": 1
  },
  {
    "MOLECULE": "O=C1C2CC=CCC2C(=O)N1SC(Cl)(Cl)Cl (centres undefined)",
    "CATEGORY_LABEL": 1
  },
  {
    "MOLECULE": "O=[N+]([O-])c1ccccc1",
    "CATEGORY_LABEL": 0
  },
  {
    "MOLECULE": "COC1=CC(=O)O[C@@H](/C=C/c2ccccc2)C1",
    "CATEGORY_LABEL": 0
  },
  {
    "MOLECULE": "O=C(O)C(Cl)(Cl)Cl",
    "CATEGORY_LABEL": 0
  },
  {
    "MOLECULE": "CC(C)CCON=O",
    "CATEGORY_LABEL": 0
  },
  {
    "MOLECULE": "C[C@H]1CCC[C@H](O)CCCCCc2cc(O)cc(O)c2C(=O)O1",
    "CATEGORY_LABEL": 0
  },
  {
    "MOLECULE": "C[C@H]1CC[C@@H]2[C@@H](C)[C@H]3[C@H](C[C@H]4[C@@H]5CC=C6CC(O[C@@H]7O[C@H](CO)[C@H](O)[C@H](O[C@@H]8O[C@H](CO)[C@@H](O)[C@H](O)[C@H]8O)[C@H]7O[C@H]7O[C@@H](C)[C@H](O)[C@@H](O)[C@H]7O)CC[C@]6(C)[C@H]5CC[C@]34C)N2C1 (some centres undefined)",
    "CATEGORY_LABEL": 1
  },
  {
    "MOLECULE": "Clc1ccccc1Cl",
    "CATEGORY_LABEL": 0
  },
  {
    "MOLECULE": "[O]=[Cd]",
    "CATEGORY_LABEL": 0
  },
  {
    "MOLECULE": "ClCC1CO1 (centres undefined)",
    "CATEGORY_LABEL": 0
  },
  {
    "MOLECULE": "O=C1C=CC(=O)C=C1",
    "CATEGORY_LABEL": 1
  }
]
